# Test Description: Repeated once-daily oral dosing with food (Days 1-7) in healthy subjects, PK and PD
# Format: in vivo, human
# Applied Conditions: both sexes, human, plasma, oral, 16 mg, young subjects, 16 mg, Day 1; read-out: Cmax, Mean (SD)
Outcome Measure: Cmax

Prompt line: Reported Cmax, compound Cc1ccc(COC(=O)N2CC[C@H](CNc3ncccn3)[C@H](F)C2)cc1 [Form II] : ____
Response line: 306 ng/mL

----------
# Test Description: Single-dose pharmacokinetics in monkeys (oral and IV)
# Format: in vivo
# Applied Conditions: male, rhesus, rhesus monkey, plasma; PO 15 mg/kg, mean (S.D.)
Outcome Measure: AUC(0-inf) (µM·h)
Dear colleague, please return just the value in µM·h, with no unit written.

Prompt line: For the compound Cc1ccc(COC(=O)N2CC[C@H](CNc3ncccn3)[C@H](F)C2)cc1 [Form II] , what AUC(0-inf) is on record?
Response line: 25.1

----------
# Test Description: Repeated once-daily oral dosing with food (Days 1-7) in healthy subjects, PK and PD
# Assay type: in vivo, human
# Applied Conditions: male, human, plasma, oral, males, all doses pooled, Day 7; read-out: Cmax, Mean (SD)
Outcome Measure: Cmax (ng/mL)
Numeric only. Scale: ng/mL

Prompt line: Field request: Cmax | item: Cc1ccc(COC(=O)N2CC[C@H](CNc3ncccn3)[C@H](F)C2)cc1 [Form II]
Response line: 355

----------
# Test Description: Repeated once-daily oral dosing with food (Days 1-7) in healthy subjects, PK and PD
# Format: in vivo, human
# Applied Conditions: both sexes, human, plasma, oral, 12 mg, intermediate age, 12 mg, Day 1; read-out: Cmax, Mean (SD)
Outcome Measure: Cmax (ng/mL)
Hi! Could you send only the number? It should be in ng/mL, unit omitted.

Prompt line: Could you tell me which Cmax is on file for Cc1ccc(COC(=O)N2CC[C@H](CNc3ncccn3)[C@H](F)C2)cc1 [Form II] ?
Response line: 257

----------
# Test Description: Repeated once-daily oral dosing with food (Days 1-7) in healthy subjects, PK and PD
# Type: in vivo, human
# Applied Conditions: female, human, plasma, oral, females, all doses pooled, Day 7; read-out: tmax, Median
Outcome Measure: Tmax (h)
Expressed in h, but write only the number.

Prompt line: // lookup Tmax for Cc1ccc(COC(=O)N2CC[C@H](CNc3ncccn3)[C@H](F)C2)cc1 [Form II]
Response line: 2

----------
# Test Description: Repeated once-daily oral dosing with food (Days 1-7) in healthy subjects, PK and PD
# Assay type: in vivo, human
# Applied Conditions: both sexes, human, plasma, oral, 16 mg, young subjects, 16 mg, Day 7; read-out: tmax, Median
Outcome Measure: Tmax
Please state the value followed by its unit.

Prompt line: Requested field: Tmax. Item: Cc1ccc(COC(=O)N2CC[C@H](CNc3ncccn3)[C@H](F)C2)cc1 [Form II]
Response line: 1.75 h

----------
# Test Description: Repeated once-daily oral dosing with food (Days 1-7) in healthy subjects, PK and PD
# Assay type: in vivo, human
# Applied Conditions: both sexes, human, plasma, oral, 12 mg, young subjects, 12 mg, Day 7; read-out: tmax, Median
Outcome Measure: Tmax (h)
Write the number in h without appending the unit.

Prompt line: Return reported Tmax; argument: Cc1ccc(COC(=O)N2CC[C@H](CNc3ncccn3)[C@H](F)C2)cc1 [Form II]
Response line: 2.5

----------
# Test Description: Repeated once-daily oral dosing with food (Days 1-7) in healthy subjects, PK and PD
# Type: in vivo, human
# Applied Conditions: both sexes, human, plasma, oral, 20 mg, young subjects, 20 mg, Day 1; read-out: Cmax, Mean (SD)
Outcome Measure: Cmax (ng/mL)
Use ng/mL as the unit, but write only the number.

Prompt line: What does the data say about its Cmax? Entry: Cc1ccc(COC(=O)N2CC[C@H](CNc3ncccn3)[C@H](F)C2)cc1 [Form II]
Response line: 384

----------
# Test Description: Repeated once-daily oral dosing with food (Days 1-7) in healthy subjects, PK and PD
# Assay type: in vivo, human
# Applied Conditions: both sexes, human, plasma, oral, 12 mg, intermediate age, 12 mg, Day 1; read-out: tmax, Mean (SD)
Outcome Measure: Tmax (h)
Hi! Could you send only the number? It should be in h, unit omitted.

Prompt line: # lookup: Tmax of Cc1ccc(COC(=O)N2CC[C@H](CNc3ncccn3)[C@H](F)C2)cc1 [Form II]
Response line: 2.5

----------
# Test Description: Cardiovascular safety in conscious chair-restrained monkeys, single oral doses
# Format: in vivo, monkey
# Applied Conditions: monkey, plasma; 150 mg/kg oral
Outcome Measure: Cmax

Prompt line: What value of measured Cmax is listed for Cc1ccc(COC(=O)N2CC[C@H](CNc3ncccn3)[C@H](F)C2)cc1 [Form II] ?
Response line: ~15 µM

----------
# Test Description: Repeated once-daily oral dosing with food (Days 1-7) in healthy subjects, PK and PD
# Type: in vivo, human
# Applied Conditions: both sexes, human, plasma, oral, 12 mg, elderly, 12 mg, Day 7; read-out: t1/2, Mean (SD) (converted)
Outcome Measure: half-life (h)
Write the number in h without appending the unit.

Prompt line: Entry under review: Cc1ccc(COC(=O)N2CC[C@H](CNc3ncccn3)[C@H](F)C2)cc1 [Form II] . Reported half-life?
Response line: 28.3

----------
# Test Description: Repeated once-daily oral dosing with food (Days 1-7) in healthy subjects, PK and PD
# Type: in vivo, human
# Applied Conditions: both sexes, human, plasma, oral, 12 mg, elderly, 12 mg, Day 7; read-out: AUC0-24, Mean (SD)
Outcome Measure: AUC(0-t) (ng·h/mL)
# value in ng·h/mL; strip the unit string

Prompt line: Endpoint output: AUC(0-t) of Cc1ccc(COC(=O)N2CC[C@H](CNc3ncccn3)[C@H](F)C2)cc1 [Form II] . Value?
Response line: 4520

----------
# Test Description: Repeated once-daily oral dosing with food (Days 1-7) in healthy subjects, PK and PD
# Type: in vivo, human
# Applied Conditions: female, human, plasma, oral, females, all doses pooled, Day 7; read-out: tmax, Mean (SD)
# Experimental: A randomized, double-blind, placebo-controlled, parallel-dose group in-patient study is conducted to investigate the pharmacodynamic (PD) effects of crystalline Form II of Compound (I) in healthy subjects. The study is designed as a three-part, sequential study. […]
Outcome Measure: Tmax (h)
Dear colleague, please return just the value in h, with no unit written.

Prompt line: Dear colleague, I am looking for the recorded Tmax of the following molecule: Cc1ccc(COC(=O)N2CC[C@H](CNc3ncccn3)[C@H](F)C2)cc1 [Form II]
Response line: 2.31

----------
# Test Description: Repeated once-daily oral dosing with food (Days 1-7) in healthy subjects, PK and PD
# Assay type: in vivo, human
# Applied Conditions: both sexes, human, plasma, oral, 12 mg, young subjects, 12 mg, Day 1; read-out: AUClast, Mean (SD)
Outcome Measure: AUC(0-t) (ng·h/mL)
All answers are understood in ng·h/mL, so give the number only.

Prompt line: Report AUC(0-t) for Cc1ccc(COC(=O)N2CC[C@H](CNc3ncccn3)[C@H](F)C2)cc1 [Form II] please.
Response line: 1840

----------
# Test Description: Repeated once-daily oral dosing with food (Days 1-7) in healthy subjects, PK and PD
# Type: in vivo, human
# Applied Conditions: male, human, plasma, oral, males, all doses pooled, Day 7; read-out: AUClast, Mean (SD)
Outcome Measure: AUC(0-t) (ng·h/mL)
Write the value in ng·h/mL as a bare number.

Prompt line: Look up AUC(0-t) for this compound: Cc1ccc(COC(=O)N2CC[C@H](CNc3ncccn3)[C@H](F)C2)cc1 [Form II]
Response line: 6350

----------
# Test Description: Repeated once-daily oral dosing with food (Days 1-7) in healthy subjects, PK and PD
# Assay type: in vivo, human
# Applied Conditions: both sexes, human, plasma, oral, 8 mg, young subjects, 8 mg, Day 7; read-out: AUC0-24, Mean (SD)
Outcome Measure: AUC(0-t) (ng·h/mL)
// note: answer is a bare numeric in ng·h/mL

Prompt line: Entry Cc1ccc(COC(=O)N2CC[C@H](CNc3ncccn3)[C@H](F)C2)cc1 [Form II] : reported AUC(0-t) = ?
Response line: 2400

----------
# Test Description: Repeated once-daily oral dosing with food (Days 1-7) in healthy subjects, PK and PD
# Format: in vivo, human
# Applied Conditions: female, human, plasma, oral, females, all doses pooled, Day 1; read-out: AUC0-24, Mean (SD)
Outcome Measure: AUC(0-t)
Report the figure along with its unit, number first.

Prompt line: AUC(0-t) for Cc1ccc(COC(=O)N2CC[C@H](CNc3ncccn3)[C@H](F)C2)cc1 [Form II] ?
Response line: 2340 ng·h/mL

----------
# Test Description: Repeated once-daily oral dosing with food (Days 1-7) in healthy subjects, PK and PD
# Type: in vivo, human
# Applied Conditions: both sexes, human, plasma, oral, 8 mg, young subjects, 8 mg, Day 1; read-out: AUC0-24, Mean (SD)
Outcome Measure: AUC(0-t)
Number first, unit second: that is the form wanted.

Prompt line: Endpoint output: AUC(0-t) of Cc1ccc(COC(=O)N2CC[C@H](CNc3ncccn3)[C@H](F)C2)cc1 [Form II] . Value?
Response line: 1500 ng·h/mL
